Assay type: in vivo, rabbit
testParameters: New Zealand White, rabbit, plasma, po, 15 mg/kg, AUClast, NZW rabbit, single oral dose 15 mg/kg, mean
readout: AUC(0-t) (ng·h/mL)
Numbers only here, please. The scale is ng·h/mL.

Quick check: AUC(0-t) of `CC(=O)c1nn(CC(=O)N2C[C@H](F)C[C@H]2C(=O)Nc2cccc(Br)n2)c2ccc(-c3cnc(C)nc3)cc12` ?
1430

---

Type: in vivo, rabbit
testParameters: New Zealand White, rabbit, neural retina, po, 15 mg/kg, Cmax, NZW rabbit, single oral dose 15 mg/kg, mean
readout: Cmax (ng/g)
Dear colleague, please return just the value in ng/g, with no unit written.

Report Cmax for `CC(=O)c1nn(CC(=O)N2C[C@H](F)C[C@H]2C(=O)Nc2cccc(Br)n2)c2ccc(-c3cnc(C)nc3)cc12` please.
200

---

Format: in vivo, rabbit
testParameters: New Zealand White, rabbit, neural retina, po, 15 mg/kg
readout: MRT last (h)
Entry rule: numbers only, all in h.

Please report the recorded MRT last for CC(=O)c1nn(CC(=O)N2C[C@H](F)C[C@H]2C(=O)Nc2cccc(Br)n2)c2ccc(-c3cnc(C)nc3)cc12 [Danicopan] .
1.49

---

Type: in vivo, rabbit
testParameters: New Zealand White, rabbit, choroid/BrM/RPE, po, 15 mg/kg
readout: MRT last (h)
Unit h implied. Number only.

What value of measured MRT last is listed for `CC(=O)c1nn(CC(=O)N2C[C@H](F)C[C@H]2C(=O)Nc2cccc(Br)n2)c2ccc(-c3cnc(C)nc3)cc12` ?
5.87
